- Assay Info: Oral pharmacokinetics (plasma, brain, CSF)
- Experimental Conditions: rat, per os, 10 mg/kg, CSF
Metric: CSF Cmax (ng/mL)

>  <Compound>
CN1CCN(C(=O)OC(C)(C)C)CC12CN(CC(N)=O)C2=O (stereo not shown)

>  <Metric>
CSF Cmax

>  <Value Measured>
232

$$$$
>  <Compound>
C[C@@H](O)[C@H](N)C(=O)N1CCNC2(CCNC2=O)C1 (stereo partly shown)

>  <Metric>
CSF Cmax

>  <Value Measured>
143

$$$$
>  <Compound>
C[C@@H](O)[C@H](N)C(=O)N1CCNC2(CNC2=O)C1 (single isomer, unassigned) [EK-2]

>  <Metric>
CSF Cmax

>  <Value Measured>
81.6

$$$$
>  <Compound>
C[C@@H](O)[C@H](N)C(=O)N1CCNC2(CNC2=O)C1 (single isomer, unassigned) [EK-1]

>  <Metric>
CSF Cmax

>  <Value Measured>
7

$$$$
>  <Compound>
CN1CCN(Cc2ccccc2)C2(CNC2=O)C1 (single isomer, unassigned)

>  <Metric>
CSF Cmax

>  <Value Measured>
367.18

$$$$
>  <Compound>
C[C@@H](O)[C@H](N)C(=O)N1CCN(Cc2ccccc2)C2(CNC2=O)C1 (single isomer, unassigned)

>  <Metric>
CSF Cmax

>  <Value Measured>
56.9

$$$$
>  <Compound>
CN1CCN(Cc2ccccc2)C2(CCNC2=O)C1 (stereo not shown)

>  <Metric>
CSF Cmax

>  <Value Measured>
430.2

$$$$
>  <Compound>
O=C1NCC12CNCCN2Cc1ccccc1 (single isomer, unassigned)

>  <Metric>
CSF Cmax

>  <Value Measured>
178.3

$$$$
>  <Compound>
CC(C)(C)OC(=O)N1CCNC2(C1)CN(CC(N)=O)C2=O (stereo not shown)

>  <Metric>
CSF Cmax

>  <Value Measured>
42

$$$$
>  <Compound>
CC(=O)N1CCN(Cc2ccccc2)C2(CCNC2=O)C1 (stereo not shown)

>  <Metric>
CSF Cmax

>  <Value Measured>
520

$$$$
